# System: SF-295 CNS
# protocolSummary: NCI tumour cell line growth inhibition, 48 h
assayEndpoint: TGI

{"structure": "Cc1ccc2c(c1)C(=O)/C(=C1/CCc3ccc(C)cc31)C2", "TGI": "> 100 µM"}
{"structure": "COC(=O)CCc1ccc2c(c1)CCC2", "TGI": "> 100 µM"}

For the next question, use this compound.
Incoming: Recorded TGI for Oc1c(Br)cc(Br)cc1CN(Cc1cc(Br)cc(Br)c1O)C1CCCCC1 with SF-295 CNS, please?
Outgoing: 72.7 µM

----------
# Test system: SNB-19 CNS
# protocolSummary: NCI tumour cell line growth inhibition, 48 h
assayEndpoint: TGI

Consider the following illustrative entries.
{"compound": "N#CN=Nc1cc(Cl)c(N=NC#N)cc1Cl", "TGI": "> 100 µM"}
{"compound": "C[C@]12CCC3c4ccc(OC(=O)c5ccccc5)cc4CC[C@H]3C1CC[C@@H]2OC(=O)C12OC1CCC2=O (stereo partly drawn)", "TGI": "37 µM"}
{"compound": "O=C1CN(c2cccc(C(F)(F)F)c2)C(=O)CN1NCNN1CC(=O)N(c2cccc(C(F)(F)F)c2)CC1=O", "TGI": "> 100 µM"}
{"compound": "C=CCNC1=C2C[C@@H](C)C[C@@H](OC)[C@H](OC(=O)CN(C)C)[C@H](C)/C=C(\\C)[C@@H](OC(N)=O)[C@H](OC)/C=C\\C=C(/C)C(=O)NC(=CC1=O)C2=O", "TGI": "20.8 µM"}
{"compound": "CC1=C(C)SC(=C2Sc3c(n(C)c(=O)[nH]c3=O)S2)S1", "TGI": "> 100 µM"}

Incoming: For CC1CCCOc2ccc(cc2)C=Nc2ccc(cc2)CCc2ccc(cc2)N=Cc2ccc(cc2)OCCC1 (stereo not drawn) , what is its reported TGI?
Outgoing: > 100 µM

Incoming: Param item: CCCC(OCC)(OCC)OCC
Outgoing: > 100 µM

Incoming: Param item: CC(=O)OCC1OC(n2c(C)c(N=Nc3ccc(C)cc3)c(C)c(C#N)c2=S)C(OC(C)=O)C(OC(C)=O)C1OC(C)=O (stereo not drawn)
Outgoing: > 100 µM

----------
# Test system: MDA-MB-231 breast
# protocolSummary: NCI tumour cell line growth inhibition, 48 h
Entries and their TGI
State just the number; it will be interpreted in µM.

Consider the following illustrative entries.
{"compound": "O=S(=O)(NCCNc1cc(-c2cn(-c3ccccc3)nc2-c2cccc(O)c2)ccn1)c1ccc(C(F)(F)F)cc1", "testedTarget": "MDA-MB-231 breast", "measurementUnits": "µM", "TGI": 4.72}
{"compound": "CC1CC(N)=Nc2ccccc2N1Cc1ccccc1 (stereo not drawn)", "testedTarget": "MDA-MB-231 breast", "measurementUnits": "µM", "TGI": 27.4}
{"compound": "NCCCNc1ccc2c(c1)[n+]([O-])c1ccccc1[n+]2[O-]", "testedTarget": "MDA-MB-231 breast", "measurementUnits": "µM", "TGI": 57.6}
{"compound": "CC[C@H](C)c1occ2c(O)c(C(=O)O)c(=O)cc-2c1C", "testedTarget": "MDA-MB-231 breast", "measurementUnits": "µM", "TGI": 50.6}
{"compound": "CCC1(O)CC(OC2CC(N(C)C)C(OC3CC(O)C(OC4OC(C)C(=O)C=C4N)C(C)O3)C(C)O2)c2c(O)c3c(c(O)c2C1C(=O)OC)C(=O)c1cccc(O)c1C3=O (stereo not drawn)", "testedTarget": "MDA-MB-231 breast", "measurementUnits": "µM", "TGI": 0.296}

Incoming: For NC1=NC(=O)N2CC12 (stereo not drawn) , what is its reported TGI?
Outgoing: 244

Incoming: Param item: Oc1c(Br)cc(Br)cc1CN(Cc1cc(Br)cc(Br)c1O)C1CCCCC1
Outgoing: 72.4

Incoming: Param item: COc1cc(N2CCC(N3CCN(C)CC3)CC2)ccc1Nc1ncc(Cl)c(Nc2ccccc2P(C)(C)=O)n1
Outgoing: 31.7

----------
# Test system: DLD-1 colon
# protocolSummary: NCI tumour cell line growth inhibition, 48 h
Entries and their TGI

{"compound": "CC[O-].CC[O-].[O-]c1ccccc1C=Nc1ccccc1.[O-]c1ccccc1C=Nc1ccccc1.[Ti+4]", "testedTarget": "DLD-1 colon", "assayEndpoint": "TGI", "recordedResult": "> 100 µM"}

Incoming: For Cc1nc(NC(=S)NC(=O)c2ccc(Cl)c(Cl)c2)sc1C(=O)/C=C/c1ccccc1[N+](=O)[O-] , what is its reported TGI?
Outgoing: > 100 µM

Incoming: Param item: CN1C(=O)n2c(nc3ccccc32)C(N=[N+]=[N-])(N=[N+]=[N-])C1=O (stereo not drawn)
Outgoing: > 100 µM

----------
# Tested on: SF-539 CNS
# protocolSummary: NCI tumour cell line growth inhibition, 48 h
assayEndpoint: TGI

Consider the following illustrative entries.
{"molecule": "O=C1C2CC3C(CC2C(=O)[N]1[Sn]([c]1ccccc1)([c]1ccccc1)[c]1ccccc1)C1(Cl)C(Cl)=C(Cl)C3(Cl)C1(Cl)Cl (centres undefined)", "TGI": "0.369 µM"}
{"molecule": "CCOC(=O)C12CCCC1(O)N(NC(=O)c1cccc(Cl)c1)C(C)=C2C(=O)OC (centres undefined)", "TGI": "> 100 µM"}

Incoming: For C/C(=C\c1ccn(-c2ccc(N)c(C(F)(F)F)c2)n1)[C@@H]1C[C@@H]2O[C@]2(C)CCC[C@H](C)[C@H](O)[C@@H](C)C(=O)C(C)(C)[C@@H](O)CC(=O)O1 , what is its reported TGI?
Outgoing: 0.593 µM

Incoming: Param item: C1COC2SC3=C(SC(=C4SC5=C(SCCS5)S4)S3)SC2O1 (centres undefined)
Outgoing: > 100 µM

Incoming: Param item: Nc1nc(N)c2nc(CNc3ccc(C(=O)CC(CCC(=O)O)C(=O)O)cc3)cnc2n1 (centres undefined)
Outgoing: > 100 µM

----------
# Test system: A498 renal
# protocolSummary: NCI tumour cell line growth inhibition, 48 h
assayEndpoint: TGI

Consider the following illustrative entries.
{"molecule": "O=C1CCC(=O)N1CNc1ccc2c(c1)Sc1ccccc1O2", "recordedResult": "> 100 µM"}
{"molecule": "c1cncc(C2c3[nH]c4ccccc4c3CCN2CCCN2CCCCC2)c1 (stereo not drawn)", "recordedResult": "> 100 µM"}
{"molecule": "COc1cccc2c1C(=O)C(=O)c1c-2oc(=O)c2cc(C)cc(OC)c12", "recordedResult": "> 75 µM"}

Incoming: For O=C1C=C(Nc2ccccc2)c2ncccc2C1=O , what is its reported TGI?
Outgoing: 3 µM

Incoming: Param item: COC(=O)C1([C@@H]2C[C@@H](O)[C@]3(C)CC/C=C(\C)CCC[C@H](C)[C@H](O)[C@@H]2O3)CC1
Outgoing: > 100 µM

Incoming: Param item: CN(C(=O)OC(C)(C)C)[C@H]1CCCC[C@H]1N1CCCC1
Outgoing: > 100 µM

Incoming: Param item: CC(C)[Si](OC12CCC(CC1O)CC2C(=O)O)(C(C)C)C(C)C (stereo not drawn)
Outgoing: 31 µM

Incoming: Param item: COc1cccc(-c2nn(-c3ccccc3)cc2-c2ccnc(NCCNS(=O)(=O)c3ccc(C(F)(F)F)cc3)c2)c1
Outgoing: 6.5 µM

----------
# Test system: HT29 colon
# protocolSummary: NCI tumour cell line growth inhibition, 48 h
Entries and their GI50

Incoming: For O=C1c2ccccc2C(=O)N1/N=C\c1ccc(Br)cc1 , what is its reported GI50?
Outgoing: > 100 µM

Incoming: Param item: CCC1CCc2nc3sc(C(=O)Nc4ccccc4F)c(N)c3cc2C1 (stereo not drawn)
Outgoing: 0.915 µM

Incoming: Param item: O=c1oc2ccc(Cl)cc2c(=O)n1-c1ccc(Cl)cc1F
Outgoing: 3.33 µM

----------
# Test system: RPMI-8226 leukemia
# protocolSummary: NCI tumour cell line growth inhibition, 48 h
assayEndpoint: TGI

Consider the following illustrative entries.
{"compound": "COc1cccc(/C=C(/C(=O)O)c2cc(OC)c(OC)c(OC)c2)c1", "recordedResult": "> 100 µM"}
{"compound": "CC1=C(C)SC(=C2Sc3c(n(C)c(=O)[nH]c3=O)S2)S1", "recordedResult": "> 100 µM"}
{"compound": "O=c1[nH]cnc2c(C3OC(CO)C(O)C3O)[nH]nc12 (centres undefined)", "recordedResult": "> 100 µM"}

Incoming: For O=C1c2ccccc2C(=O)N1/N=C\c1ccc(Br)cc1 , what is its reported TGI?
Outgoing: > 10 µM

----------
# Tested on: CAKI-1 renal
# protocolSummary: NCI tumour cell line growth inhibition, 48 h
Entries and their TGI

Consider the following illustrative entries.
{"molecule": "NC(=O)/N=C(\\N)NC(=O)c1ccccc1", "recordedResult": "> 100 µM"}
{"molecule": "COC(=O)[C@H](CCSC)NC(=O)c1ccc(CNC(=O)/C=C/c2cccc(Oc3ccccc3)c2)cc1", "recordedResult": "> 80.3 µM"}
{"molecule": "C=C(Cl)C(C)(Cl)CCC(Cl)C(C)(C)Cl (centres undefined)", "recordedResult": "> 100 µM"}

Incoming: Recorded TGI for Nc1ncc(-c2cnn(C3CCNCC3)c2)cc1-c1nc2ccccc2o1 with CAKI-1 renal, please?
Outgoing: 2.85 µM

Incoming: Param item: CCSC(=Nc1ccccc1)SC
Outgoing: > 100 µM
